- Method: Pharmacokinetics after i.p. administration
- Assay type: in vivo, mice
- Test Conditions: mouse, in vivo, 10 mg/kg
Endpoint Name: concentration at 8 h (nM)
Answers are plain numbers, in nM.

The measured concentration at 8 h associated with COc1ccc(-c2ccc3c(N4CCOC[C@@H]4C)nc(N4CCOC[C@@H]4C)nc3n2)cc1CO [AZD8055] reads 200

----------
- Method: Pharmacokinetics after i.p. administration
- Format: in vivo, mice
- Test Conditions: mouse, plasma, intraperitoneal, 10 mg/kg
Endpoint Name: concentration at 8 h

Query COc1ccc(-c2ccc3c(N4CCOC[C@@H]4C)nc(N4CCOC[C@@H]4C)nc3n2)cc1CO [AZD8055] yields concentration at 8 h of ≥ 200 nM

Values were extracted from paper PMC4196715.
